Value source: patent US20240208997A1

# System: IFN induction in cGAMP-stimulated THP1 cells
# test_details: cGAMP stimulated counter cell assay in THP1-Dual cells (THP1(cGAMP) IC50)
# Type: cell-based, human
# conditions_used: Homo sapiens, THP-1; Table 1; counter assay, 10 μM cGAMP stimulation; read-out: THP(cGAMP) IC50
pIC50: −log10 of the molar value.
reported_endpoint: pIC50

compound	pIC50
C[C@H]1CN2CC[C@@H]1n1c(nc3cc(F)ccc31)O[C@H]1C[C@@H](C(=O)O)N(C1)c1nc(nc3c1oc1cc(F)ccc13)C(F)(F)CCCCCC2=O [Example 1.15]	< 5.00
C[C@H]1CN2CC[C@@H]1n1c(nc3cc(Cl)ccc31)O[C@H]1C[C@@H](C(=O)O)N(C1)c1nc(nc3c1oc1ccccc13)COCCOCC2=O [Example 1.11]	≤ 5.00
C[C@H]1CN2CC[C@@H]1n1c(nc3ccccc31)O[C@H]1C[C@@H](C(=O)O)N(C1)c1nc(nc3c1oc1ccccc13)CCOCCOC2=O (mixture of isomers) [Example 12.01]	< 5.00

Query: Fill blank: measured pIC50 of the compound C[C@H]1CN2CC[C@@H]1n1c(nc3ccccc31)O[C@H]1C[C@@H](C(=O)O)N(C1)c1nc(nc3c1oc1ccccc13)CCCCCC2=O [Example 1.19] is ____.
Result: 4.96

Query: Fill blank: measured pIC50 of the compound O=C(O)[C@@H]1C[C@H]2CN1c1nc(nc3c1oc1ccccc13)COCCCC(F)(F)C(=O)N1CCC(CC1)n1c(nc3ccccc31)O2 [Example 8.01] is ____.
Result: < 5.00

Query: Fill blank: measured pIC50 of the compound C[C@H]1CN2CC[C@@H]1n1c(nc3cc(Cl)ccc31)O[C@H]1C[C@@H](C(=O)O)N(C1)c1nc(nc3c1oc1ccccc13)C(F)(F)OCCCCC2=O [Example 6.01] is ____.
Result: < 5.00

----------
# Tested on: IFN induction in cGAMP-stimulated THP1 cells
# test_details: cGAMP stimulated counter cell assay in THP1-Dual cells (THP1(cGAMP) IC50)
# Assay type: cell-based, human
# conditions_used: Table 1; selectivity for cGAS-inhibition
reported_endpoint: Ratio THP(cGAMP) IC50/THP(vir) IC50

Here are 5 compounds together with their reported answers.
compound	Ratio THP(cGAMP) IC50/THP(vir) IC50
C[C@H]1CN2CC[C@@H]1n1c(nc3cc(F)ccc31)O[C@H]1C[C@@H](C(=O)O)N(C1)c1nc(nc3c1oc1cc(F)ccc13)C(F)(F)CCCCCC2=O [Example 1.15]	>1408
C[C@H]1CN2CC[C@@H]1n1c(nc3cc(Cl)ccc31)O[C@H]1C[C@@H](C(=O)O)N(C1)c1nc(nc3c1oc1ccccc13)COCCOCC2=O [Example 1.11]	>2907
CC1CCc2nc(c3oc4ccccc4c3n2)N2C[C@H](C[C@H]2C(=O)O)Oc2nc3cc(Cl)ccc3n2[C@H]2CCN(C[C@@H]2C)C(=O)CCO1 (stereo partly drawn) [Example 1.20]	>773
C[C@H]1CN2CC[C@@H]1n1c(nc3ccccc31)O[C@H]1C[C@@H](C(=O)O)N(C1)c1nc(nc3c1oc1ccccc13)C(F)(F)COCCCCC2=O [Example 3.01]	32066
C[C@H]1CN2CC[C@@H]1n1c(nc3ccccc31)O[C@H]1C[C@@H](C(=O)O)N(C1)c1nc(nc3c1oc1ccccc13)CCCCCCC2=O (racemic) [Example 1.24]	65

Query: Fill blank: measured Ratio THP(cGAMP) IC50/THP(vir) IC50 of the compound C[C@H]1CN2CC[C@@H]1n1c(nc3ccc(Cl)cc31)O[C@H]1C[C@@H](C(=O)O)N(C1)c1nc(nc3c1oc1ccccc13)COCCCCC2=O [Example 1.10] is ____.
Result: >790
